tested.target: Thromboxane A2 receptor (Homo sapiens, UniProt P21731); further: assay procedure not described here
Sequence (P21731 whole entry): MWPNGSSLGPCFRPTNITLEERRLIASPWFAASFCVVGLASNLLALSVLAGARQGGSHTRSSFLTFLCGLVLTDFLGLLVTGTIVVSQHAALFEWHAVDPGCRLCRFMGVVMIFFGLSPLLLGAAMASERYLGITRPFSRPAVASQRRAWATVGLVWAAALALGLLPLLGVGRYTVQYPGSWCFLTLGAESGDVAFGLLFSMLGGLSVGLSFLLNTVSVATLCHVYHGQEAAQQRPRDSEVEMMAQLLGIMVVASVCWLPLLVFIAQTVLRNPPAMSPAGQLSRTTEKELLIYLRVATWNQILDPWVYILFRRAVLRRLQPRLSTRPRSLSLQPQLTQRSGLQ
Type: functional, cell-based
measurement.name: AC50

Ask: Field request: AC50 | item: C#C[C@]1(O)CC[C@H]2[C@@H]3CCc4cc(O)ccc4[C@H]3CC[C@@]21C [ETHINYL ESTRADIOL]
Reply: > 30 µM

Ask: Field request: AC50 | item: COc1ccc(-c2cc(=O)c3c(O)cc(O[C@@H]4O[C@H](CO[C@@H]5O[C@@H](C)[C@H](O)[C@@H](O)[C@H]5O)[C@@H](O)[C@H](O)[C@H]4O)cc3o2)cc1O [DIOSMIN]
Reply: > 30 µM

Ask: Field request: AC50 | item: C[C@@H]1O[C@@H](OC[C@H]2O[C@@H](Oc3c(-c4ccc(OCCO)c(OCCO)c4)oc4cc(OCCO)cc(O)c4c3=O)[C@H](O)[C@@H](O)[C@@H]2O)[C@H](O)[C@H](O)[C@H]1O [TROXERUTIN]
Reply: > 30 µM

Ask: Field request: AC50 | item: CN(C)c1ccc(C(=C2C=CC(=[N+](C)C)C=C2)c2ccc(N(C)C)cc2)cc1 [GENTIAN VIOLET]
Reply: > 30 µM

Ask: Field request: AC50 | item: COc1ccc(CCC(C)NCC(O)c2ccc(O)c([S+](C)[O-])c2)cc1 (stereo not drawn) [SULFINALOL]
Reply: > 30 µM

Ask: Field request: AC50 | item: Cc1cc(O)cc(C)c1Cl [CHLOROXYLENOL]
Reply: > 30 µM

Ask: Field request: AC50 | item: C1N2CN3CN1CN(C2)C3 [METHENAMINE]
Reply: > 30 µM

Ask: Field request: AC50 | item: C#C[C@]1(O)CC[C@H]2[C@@H]3CCC4=CC(=O)CC[C@@H]4[C@H]3CC[C@@]21CC [LEVONORGESTREL]
Reply: > 30 µM

* * *

Target or system Sodium-dependent dopamine transporter (Homo sapiens, UniProt Q01959): recorded AC50 listed per item. Further: assay procedure not described here.

Ask: Field request: AC50 | item: `C1COC(NC(C2CC2)C2CC2)=N1`
Reply: > 30 µM

Ask: Field request: AC50 | item: `CN(CCCN1c2ccccc2CCc2ccccc21)CC(=O)c1ccc(Cl)cc1`
Reply: 21 µM

Ask: Field request: AC50 | item: CCN1CCC[C@H]1CNC(=O)c1cc(S(N)(=O)=O)ccc1OC [LEVOSULPIRIDE]
Reply: > 30 µM

Ask: Field request: AC50 | item: `CS(=O)(=O)Nc1cc2occ(NC=O)c(=O)c2cc1Oc1ccccc1`
Reply: > 30 µM

Ask: Field request: AC50 | item: `C[C@@H]1O[C@@H]1P(=O)(O)O`
Reply: > 10 µM

Ask: Field request: AC50 | item: `O=P(O)(O)C(O)(Cc1cccnc1)P(=O)(O)O`
Reply: > 30 µM

Ask: Field request: AC50 | item: `CC[C@]1(O)C[C@@H]2CN(CCc3c([nH]c4ccccc34)[C@@](C(=O)OC)(c3cc4c(cc3OC)N(C)[C@H]3[C@@](O)(C(N)=O)[C@H](O)[C@]5(CC)C=CCN6CC[C@]43[C@@H]65)C2)C1`
Reply: > 30 µM

Ask: Field request: AC50 | item: `CCCCOc1cc(C(=O)NCCN(CC)CC)c2ccccc2n1`
Reply: > 10 µM

Ask: Field request: AC50 | item: `CC(=O)N[C@H]1[C@H]([C@H](O)[C@H](O)CO)OC(C(=O)O)=C[C@@H]1N=C(N)N`
Reply: > 30 µM

Ask: Field request: AC50 | item: CCCCC(C)(O)C/C=C/[C@H]1[C@H](O)CC(=O)[C@@H]1CCCCCCC(=O)OC (stereo partly specified)
Reply: > 30 µM

Ask: Field request: AC50 | item: `C#C[C@]1(O)CC[C@H]2[C@@H]3CCc4cc(O)ccc4[C@H]3CC[C@@]21C`
Reply: 2.81 µM

Ask: Field request: AC50 | item: C[C@H]1O[C@H](O[C@H]2[C@H](O)[C@@H](O)[C@@H](O[C@H]3[C@H](O)[C@@H](O)C(O)O[C@@H]3CO)O[C@@H]2CO)[C@H](O)[C@@H](O)[C@@H]1N[C@H]1C=C(CO)[C@@H](O)[C@H](O)[C@H]1O (stereo partly specified)
Reply: > 30 µM

Ask: Field request: AC50 | item: `O=C1CN=C(c2ccccc2)c2cc(Cl)ccc2N1CC(F)(F)F`
Reply: > 30 µM

Ask: Field request: AC50 | item: `CCCCCN(C)CCC(O)(P(=O)(O)O)P(=O)(O)O`
Reply: > 30 µM

Ask: Field request: AC50 | item: COC(=O)C1=C(C)NC(C)=C(C(=O)OC(C)C)C1c1cccc2nonc12 (stereo unspecified)
Reply: 26 µM

Ask: Field request: AC50 | item: `Cc1ccc(-c2nc3ccc(C)cn3c2CC(=O)N(C)C)cc1`
Reply: > 30 µM
